# credit: patent US11464770B2

system: colorectal cancer cell lines (e.g. DLD-1, HCT 116, SW620, HCT-15, HCT-8, RKO); assay: Cell based assay, cell viability (CellTiter-Glo), colorectal cancer cell lines; settings: Homo sapiens, HCT 116, 72 hours treatment, read-out: IC50, colorectal cancer cell line HCT 116
pIC50: −log10 of the molar value.
readout: pIC50

>  <compound>
CC(=O)c1c([S+]([O-])Cc2cccc(F)c2)[nH]c2c(Br)ccc(Cl)c2c1=O (stereo not shown)

>  <pIC50>
5.86

$$$$
>  <compound>
CC(=O)c1c([S+]([O-])Cc2ccc(C#N)cc2)[nH]c2c(Br)ccc(Cl)c2c1=O (stereo not shown)

>  <pIC50>
5.73

$$$$
>  <compound>
CC(=O)c1c([S+]([O-])Cc2ccc(C(F)(F)F)o2)[nH]c2c(Br)ccc(Cl)c2c1=O (stereo not shown)

>  <pIC50>
6.03

$$$$
>  <compound>
CC(=O)c1c([S+](C)[O-])[nH]c2c(Br)ccc(Cl)c2c1=O (stereo not shown)

>  <pIC50>
5.78

$$$$
>  <compound>
CC(=O)c1c([S+]([O-])Cc2ccc(C(F)(F)F)cc2)[nH]c2c(Br)ccc(Cl)c2c1=O (stereo not shown)

>  <pIC50>
5.88

$$$$
